src = patent US12421254B2

Target: GST-tagged KRAS-G12V (2-169) (Homo sapiens, UniProt P01116, G12V)
Sequence (P01116 2-169 isoform P01116-2 G12V): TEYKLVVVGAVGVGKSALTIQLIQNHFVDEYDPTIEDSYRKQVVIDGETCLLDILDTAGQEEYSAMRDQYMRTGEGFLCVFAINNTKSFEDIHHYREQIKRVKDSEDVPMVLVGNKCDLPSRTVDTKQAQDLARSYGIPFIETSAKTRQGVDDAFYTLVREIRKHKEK
Assay: Nucleotide exchange assay (NEA), SOS-mediated, HTRF, KRAS G12V
Format: biochemical
Conditions: Table 4; IC50 extracted at 90 min; 80 nM SOS
Parameter: IC50. Scope: all listed entries.

Sample records with IC50:
[
  {
    "Compound": "N#Cc1c(N)sc2c1C1(CN(c3nc(OC[C@@]45CCCN4C[C@H](F)C5)nc(N4CC(=O)Nc5ncccc5C4)n3)C1)SC2",
    "IC50": "10 to 100 nM"
  },
  {
    "Compound": "N#CCC1(O)CCCN(c2nc(OCC3(CN4CCOCC4)CC3)nc(N3CC4(CCc5sc(N)c(C#N)c54)C3)n2)C1 (stereo not shown)",
    "IC50": "< 10 nM"
  },
  {
    "Compound": "N#Cc1c(N)sc2c1C1(CCC2)CN(c2nc(OCC3(C#N)CC3)nc(OC[C@@]34CCCN3C[C@H](F)C4)n2)C1",
    "IC50": "10 to 100 nM"
  },
  {
    "Compound": "CC(O)CN(c1nc(OC[C@@]23CCCN2C[C@H](F)C3)nc(N2CC3(C2)SCc2sc(N)c(C#N)c23)n1)C1(C#N)CC1 (stereo partly shown)",
    "IC50": "< 10 nM"
  },
  {
    "Compound": "C#CC(C)N(CC#N)c1nc(OC[C@@]23CCCN2C[C@H](F)C3)nc(N2CC3(C2)SCc2sc(N)c(C#N)c23)n1 (stereo partly shown)",
    "IC50": "< 10 nM"
  }
]

query: # return recorded IC50 for input N#Cc1c(N)sc2c1C1(CC2)CN(c2nc(OC[C@@]34CCCN3C[C@H](F)C4)nc(N3CCSc4ncccc4C3)n2)C1
result: 100 to 1000 nM

query: # return recorded IC50 for input N#Cc1c(N)sc2c1C1(CN(c3nc(OCC4(CN5CCOCC5)CC4)nc(N4C[C@@H]5CC[C@@H](N5)C4CO)n3)C1)SC2 (stereo partly shown)
result: 10 to 100 nM

query: # return recorded IC50 for input CC1(O)CC(F)CN(c2nc(OC[C@@]34CCCN3C[C@H](F)C4)nc(N3CC4(CCc5sc(N)c(C#N)c54)C3)n2)C1 (stereo partly shown)
result: < 10 nM

query: # return recorded IC50 for input CCN(c1nc(OC[C@@]23CCCN2C[C@H](F)C3)nc(N2CC3(C2)SCc2sc(N)c(C#N)c23)n1)[C@@H](C)c1cccnc1N [Compound 139B]
result: < 10 nM

query: # return recorded IC50 for input N#CCN(Cc1c[nH]nn1)c1nc(OC[C@@]23CCCN2C[C@H](F)C3)nc(N2CC3(C2)SCc2sc(N)c(C#N)c23)n1
result: < 10 nM
